For each entry below, report its PBM binding z-score value.
Tested on: FXR:RXRa (NR concentration 270 nM, RXRa partner concentration 90 nM)
assay info: PBM binding z-score (relative to random genomic background probes); higher = stronger binding; sequences stand for … in GC…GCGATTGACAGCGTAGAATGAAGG

See these solved cases before continuing.
ACTAATTGGTCAGCTGAGGTCACACACAATTCGG	3.46
AATACAGGGTCACTTGGCCAGAGTAGGTACGAAT	6.52
CATAGTTGGTCAAGGTCACACACGCTATAGGTAC	4.26
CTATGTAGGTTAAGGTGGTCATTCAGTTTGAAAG	1.04
CGAACTAGGTCACCAGGACAGGGAAGAGGTTGGA	4.04
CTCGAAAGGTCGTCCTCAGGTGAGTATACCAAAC	4.94

Look up PBM binding z-score for the entries below, preserving their order.
1. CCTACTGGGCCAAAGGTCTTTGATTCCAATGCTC
2. TCTAGTTGGTCAAAGGTCAAACACTCGAAATGCG
3. CGAACTAGGTAACCAGGACAGTGAAGAGGTTGGA
4. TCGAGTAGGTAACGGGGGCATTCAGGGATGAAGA
5. CGTCCAAGGTCACCAGGTCAGTGAAAGCGACGTG

## Output
1: -0.409; 2: 6.51; 3: -0.0198; 4: 1.53; 5: 7.52

## Input Entry TCGAGTAGTTTACGGGGGCATTCAGGGATGAAGA : reported PBM binding z-score = ?
## Output 1.17
